# measurement target: mouse embryo RNA-polymerase II (ME-RNA-P2) (Mus musculus, UniProt P08775+Q8CFI7)
# Construct: mouse embryo RNA-polymerase II (ME-RNA-P2); endogenous in cells; host or cells: mouse embryo cells
# protocol summary: effect on mouse embryo RNA-polymerase II
# Format: biochemical
# run parameters: 100μg; Single Stranded Calf-Thymus DNA; read-out: % Control Activity of ME-RNA-P2 at 100μg
Listed here are compounds together with their documented remaining activity at 100 µg.

compound: COC1C=COC2(C)Oc3c(C)c(O)c4c(c3C2=O)C2(C=C(NC(=O)C(C)=CC=CC(C)C(O)C(C)C(O)C(C)C(OC(C)=O)C1C)C4=O)OCC(=O)O2 (stereo not shown)
remaining activity at 100 µg, %: 65
--
compound: CO[C@H]1/C=C/O[C@@]2(C)Oc3c(C)c(O)c4c(O)c(cc(O)c4c3C2=O)NC(=O)/C(C)=C\C=C\[C@H](C)[C@H](O)[C@@H](C)[C@@H](O)[C@@H](C)[C@H](OC(C)=O)[C@@H]1C
remaining activity at 100 µg, %: 82
--
compound: CO[C@H]1/C=C/O[C@@]2(C)Oc3c(C)c(O)c4c(c3C2=O)C(=O)C=C(NC(=O)/C(C)=C\C=C\[C@H](C)[C@H](O)[C@@H](C)[C@@H](O)[C@@H](C)[C@H](OC(C)=O)[C@@H]1C)C4=O
remaining activity at 100 µg, %: 81
--
compound: COC1C=COC2(C)Oc3c(C)c(O)c4c(O)c(cc(OCC(=O)O)c4c3C2=O)NC(=O)C(C)=CC=CC(C)C(O)C(C)C(O)C(C)C(OC(C)=O)C1C (stereo not shown)
remaining activity at 100 µg, %: 95

###

# measurement target: sarcoma virus DNA-polymerases (SSV-DNA-P) (Woolly monkey sarcoma virus)
# Construct: sarcoma virus DNA-polymerases (SSV-DNA-P)
# Sequence (P03359 642-1310): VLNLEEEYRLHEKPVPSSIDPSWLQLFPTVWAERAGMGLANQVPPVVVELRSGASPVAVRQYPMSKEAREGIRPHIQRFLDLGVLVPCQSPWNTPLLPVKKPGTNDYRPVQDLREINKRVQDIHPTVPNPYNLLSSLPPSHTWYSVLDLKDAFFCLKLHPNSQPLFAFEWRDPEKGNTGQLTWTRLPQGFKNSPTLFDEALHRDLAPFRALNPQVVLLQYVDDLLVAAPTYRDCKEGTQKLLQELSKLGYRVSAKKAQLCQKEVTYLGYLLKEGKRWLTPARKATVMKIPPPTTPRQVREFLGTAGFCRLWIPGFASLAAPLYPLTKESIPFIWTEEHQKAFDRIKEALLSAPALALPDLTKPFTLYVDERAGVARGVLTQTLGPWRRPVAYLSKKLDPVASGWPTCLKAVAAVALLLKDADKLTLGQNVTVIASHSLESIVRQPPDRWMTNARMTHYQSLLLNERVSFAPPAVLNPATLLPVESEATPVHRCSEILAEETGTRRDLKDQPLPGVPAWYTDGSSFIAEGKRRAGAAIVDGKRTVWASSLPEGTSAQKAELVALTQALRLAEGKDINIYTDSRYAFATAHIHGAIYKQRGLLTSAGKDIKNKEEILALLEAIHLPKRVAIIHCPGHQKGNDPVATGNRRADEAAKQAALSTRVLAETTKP
# protocol summary: effect on activity of SSV-polymerase
# Format: biochemical
# run parameters: 5μg; template Oligo dT.Poly rA
Listed here are compounds together with their documented % Control Activity of SSV-DNA-P at 5μg.

compound: COC1C=COC2(C)Oc3c(C)c(O)c4c(O)c(c(C=NNc5ccc([N+](=O)[O-])cc5[N+](=O)[O-])c(O)c4c3C2=O)NC(=O)C(C)=CC=CC(C)C(O)C(C)C(O)C(C)C(OC(C)=O)C1C (stereo not drawn) [Example 12]
% Control Activity of SSV-DNA-P at 5μg [%]: 44
//
compound: COC1C=COC2(C)Oc3c(C)c(O)c4c(O)c(cc(OCC(=O)O)c4c3C2=O)NC(=O)C(C)=CC=CC(C)C(O)C(C)C(O)C(C)C(OC(C)=O)C1C (stereo not drawn) [rifamycin B]
% Control Activity of SSV-DNA-P at 5μg [%]: 96
//
compound: COC1C=COC2(C)Oc3c(C)c(O)c4c(c3C2=O)C2(C=C(NC(=O)C(C)=CC=CC(C)C(O)C(C)C(O)C(C)C(OC(C)=O)C1C)C4=O)OCC(=O)O2 (stereo not drawn) [rifamycin O]
% Control Activity of SSV-DNA-P at 5μg [%]: 100

###

# measurement target: mouse embryo RNA-polymerase I (ME-RNA-P1) (Mus musculus, UniProt O35134+P70700)
# Construct: mouse embryo RNA-polymerase I (ME-RNA-P1); endogenous in cells; host or cells: mouse embryo cells
# protocol summary: effect on mouse embryo RNA-polymerase I
# Assay type: biochemical
# run parameters: 10μg; Single Stranded Calf-Thymus DNA; read-out: % Control Activity of ME-RNA-P1 at 10μg
measure: remaining activity at 10 µg (%)

compound: COC1C=COC2(C)Oc3c(C)c(O)c4c(O)c(cc(OCC(=O)O)c4c3C2=O)NC(=O)C(C)=CC=CC(C)C(O)C(C)C(O)C(C)C(OC(C)=O)C1C (stereo not shown) [rifamycin B]
measure: remaining activity at 10 µg
measured number: 76

compound: CO[C@H]1/C=C/O[C@@]2(C)Oc3c(C)c(O)c4c(c3C2=O)C(=O)C=C(NC(=O)/C(C)=C\C=C\[C@H](C)[C@H](O)[C@@H](C)[C@@H](O)[C@@H](C)[C@H](OC(C)=O)[C@@H]1C)C4=O [rifamycin S]
measure: remaining activity at 10 µg
measured number: 102

compound: COC1C=COC2(C)Oc3c(C)c(O)c4c(c3C2=O)C2(C=C(NC(=O)C(C)=CC=CC(C)C(O)C(C)C(O)C(C)C(OC(C)=O)C1C)C4=O)OCC(=O)O2 (stereo not shown) [rifamycin O]
measure: remaining activity at 10 µg
measured number: 77

compound: CO[C@H]1/C=C/O[C@@]2(C)Oc3c(C)c(O)c4c(O)c(cc(O)c4c3C2=O)NC(=O)/C(C)=C\C=C\[C@H](C)[C@H](O)[C@@H](C)[C@@H](O)[C@@H](C)[C@H](OC(C)=O)[C@@H]1C [rifamycin SV]
measure: remaining activity at 10 µg
measured number: 84
